We begin with a simple list: items and their reported Ratio IC50.
- assay.text: Ratio of IC50 for COX1 to IC50 for COX2
assay.metric: Ratio IC50

# query.smiles, endpoint.result
data = [
    ("Cc1ccc(Cl)c(Nc2ccccc2C(=O)NCCCCl)c1Cl", 40),
    ("Cc1ccc(Cl)c(Nc2ccccc2C(=O)NOCc2ccc([N+](=O)[O-])cc2)c1Cl", 273),
    ("Cc1ccc(Cl)c(Nc2ccccc2C(=O)O)c1Cl", 0.72),
    ("COc1ccc2c(c1)c(CC(=O)Nc1cccnc1)c(C)n2C(=O)c1ccc(Cl)cc1", 1300),
    ("Cc1ccc(Cl)c(Nc2ccccc2C(=O)NCCOc2ccccc2)c1Cl", 440),
]

Measured values drawn from ChEMBL document CHEMBL1158382 for this set.
